- Assay Name: Pharmacokinetic study on mouse brain tissue (plasma/cerebrospinal fluid/brain tissue)
- Assay type: in vivo
- Experimental Context: male, mouse, po; Cerebrospinal fluid; ICR mice, intragastric administration 10 mg/kg
Experimental Endpoint: half-life (h)
I only need the number, in h, no unit after it.

Request: Query half-life for C=C(C(=O)Nc1ccc(-c2c(-c3ccc(Oc4nccc(C)n4)c(F)c3)c3c(N)ncnc3n2C)cc1)C1CC1
Response: 6.3

###

Record: IC50 reported on FGFR3 (Homo sapiens, UniProt P22607).
Sequence (P22607 23-806): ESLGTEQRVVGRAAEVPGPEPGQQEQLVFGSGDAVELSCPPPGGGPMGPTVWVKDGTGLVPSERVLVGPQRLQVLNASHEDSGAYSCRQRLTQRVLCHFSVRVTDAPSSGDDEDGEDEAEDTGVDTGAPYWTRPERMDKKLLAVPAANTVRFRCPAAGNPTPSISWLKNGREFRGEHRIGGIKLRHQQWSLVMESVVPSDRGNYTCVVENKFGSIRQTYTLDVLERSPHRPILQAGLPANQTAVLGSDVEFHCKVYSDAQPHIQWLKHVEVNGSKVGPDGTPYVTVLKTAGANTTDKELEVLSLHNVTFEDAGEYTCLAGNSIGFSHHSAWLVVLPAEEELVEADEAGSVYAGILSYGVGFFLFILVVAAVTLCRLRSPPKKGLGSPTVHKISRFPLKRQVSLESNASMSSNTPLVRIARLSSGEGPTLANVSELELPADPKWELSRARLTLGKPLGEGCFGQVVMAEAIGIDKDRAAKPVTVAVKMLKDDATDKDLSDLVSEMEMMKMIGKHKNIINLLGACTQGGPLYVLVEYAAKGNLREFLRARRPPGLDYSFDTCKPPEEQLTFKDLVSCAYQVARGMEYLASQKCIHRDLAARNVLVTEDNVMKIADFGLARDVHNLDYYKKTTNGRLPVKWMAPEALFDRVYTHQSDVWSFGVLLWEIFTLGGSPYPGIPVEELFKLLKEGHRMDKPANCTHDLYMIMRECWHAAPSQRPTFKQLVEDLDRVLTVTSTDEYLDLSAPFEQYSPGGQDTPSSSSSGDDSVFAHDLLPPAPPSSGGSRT
Expressed in µM, but write only the number.

1) C=C(C(=O)Nc1ccc(-c2c(-c3ccc(Oc4nccc(C)n4)c(F)c3)c3c(N)ncnc3n2C)cn1)C1CC1 : 0.149
2) C=C(C(=O)Nc1ccc(-c2c(-c3ccc(Oc4nccc(C)n4)c(F)c3)c3c(N)ncnc3n2C)c(Cl)c1)C1CC1 : 0.0642

Then this molecule:
Request: Look up FGFR3 (Homo sapiens, UniProt P22607) data: IC50 of C=C(C(=O)Nc1ccc(-c2c(-c3ccc(Oc4nccc(C)n4)c(F)c3)c3c(N)ncnc3n2C)c(F)c1)C1CC1 , then report it.
Response: 0.246
